Origin of values: ChEMBL document CHEMBL3879911

Molecular target: NEDD8 activating enzyme (Homo sapiens, UniProt Q8TBC4)
Sequence (Q8TBC4 whole entry): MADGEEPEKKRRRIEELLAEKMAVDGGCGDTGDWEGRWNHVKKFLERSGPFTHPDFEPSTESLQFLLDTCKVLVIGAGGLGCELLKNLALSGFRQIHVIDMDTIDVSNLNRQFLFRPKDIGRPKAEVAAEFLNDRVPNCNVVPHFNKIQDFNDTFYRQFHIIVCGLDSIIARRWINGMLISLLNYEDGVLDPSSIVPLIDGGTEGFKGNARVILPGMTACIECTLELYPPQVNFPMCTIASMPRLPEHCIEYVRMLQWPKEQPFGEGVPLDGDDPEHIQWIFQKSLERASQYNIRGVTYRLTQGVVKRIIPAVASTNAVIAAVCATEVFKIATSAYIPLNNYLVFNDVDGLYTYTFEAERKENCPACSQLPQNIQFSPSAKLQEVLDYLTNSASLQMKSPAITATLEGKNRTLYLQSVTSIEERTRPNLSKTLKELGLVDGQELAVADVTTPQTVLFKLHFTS
Sequence (Q13564 whole entry): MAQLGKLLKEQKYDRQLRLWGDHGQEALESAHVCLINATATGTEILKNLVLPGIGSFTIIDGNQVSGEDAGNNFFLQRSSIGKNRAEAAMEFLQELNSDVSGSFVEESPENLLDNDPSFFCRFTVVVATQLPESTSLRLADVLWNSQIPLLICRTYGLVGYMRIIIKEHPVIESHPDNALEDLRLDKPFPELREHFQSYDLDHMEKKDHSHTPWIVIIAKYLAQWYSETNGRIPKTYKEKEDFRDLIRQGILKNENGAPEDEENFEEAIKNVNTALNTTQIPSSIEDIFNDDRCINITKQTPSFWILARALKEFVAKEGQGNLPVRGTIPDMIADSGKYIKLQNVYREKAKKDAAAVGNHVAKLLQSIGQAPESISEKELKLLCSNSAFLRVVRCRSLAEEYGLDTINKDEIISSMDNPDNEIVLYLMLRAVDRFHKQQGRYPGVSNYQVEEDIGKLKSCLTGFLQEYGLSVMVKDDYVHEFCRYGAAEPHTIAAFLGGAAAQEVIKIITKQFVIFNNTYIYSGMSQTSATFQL
Assay: Inhibition of recombinant human NAEalpha/N-terminal His-tagged NAEbeta expressed in baculovirus infected insect Sf9 cells using N-terminal FLAG tagged Nedd8 as substrate incubated for 105 mins in presence of N-terminal GST-tagged Ubc12 by FRET assay
pIC50: −log10 of the molar value.

| chemical-structure | pIC50 |
| --- | --- |
| Cc1cccc(Sc2nc3ncnc(O[C@@H]4C[C@@H](COS(N)(=O)=O)[C@@H](O)C4)c3[nH]2)c1 | ≥ 6.30 |
| Cc1c(N[C@H]2CCc3ccccc32)ncnc1O[C@@H]1C[C@@H](COS(N)(=O)=O)[C@@H](O)C1 | < 5.00 |
| NS(=O)(=O)OC[C@H]1C[C@@H](Nc2ccnc(NCC3CCCCC3)n2)[C@H](O)[C@@H]1O | 5.00 to 6.30 |
| CO[C@H]1c2ccccc2C[C@H]1Oc1cc(O[C@@H]2C[C@@H](COS(N)(=O)=O)[C@@H](O)C2)ncn1 | 5.00 to 6.30 |
| NS(=O)(=O)OC[C@H]1C[C@@H](NC(=O)c2cccnc2)[C@H](O)[C@@H]1O | 5.00 to 6.30 |
| NS(=O)(=O)OC[C@H]1C[C@@H](NC(=O)c2ccncc2)[C@H](O)[C@@H]1O | 5.00 to 6.30 |
| NS(=O)(=O)OC[C@@H]1C[C@@H](Nc2ncnc3[nH]c(-c4ccccc4C(F)(F)F)nc23)C[C@@H]1O | ≥ 6.30 |
| C[C@H]1Cc2ccccc2[C@H]1Nc1cc(O[C@@H]2C[C@@H](COS(N)(=O)=O)[C@@H](O)C2)ncn1 | ≥ 6.30 |
| CO[C@H]1Cc2ccccc2[C@H]1Nc1ncnc(O[C@@H]2C[C@@H](COS(N)(=O)=O)[C@@H](O)C2)c1F | ≥ 6.30 |
| NS(=O)(=O)OC[C@@H]1C[C@@H](Nc2ncnc(N[C@@H]3c4ccccc4CC3(F)F)n2)C[C@@H]1O | ≥ 6.30 |
| Cc1nc(N[C@H]2CCc3ccccc32)nc(N[C@@H]2C[C@H](COS(N)(=O)=O)[C@@H](O)[C@H]2O)n1 | ≥ 6.30 |
| NS(=O)(=O)OC[C@@H]1C[C@@H](Nc2cc(CCc3ccccc3)ncn2)C[C@@H]1O | 5.00 to 6.30 |
| NS(=O)(=O)OC[C@H]1C[C@@H](Nc2cc(N[C@H]3CCc4cc(Cl)ccc43)ncn2)[C@H](O)[C@@H]1O | ≥ 6.30 |
| COc1cccc(OC)c1-c1nc2c(N[C@@H]3C[C@@H](COS(N)(=O)=O)[C@@H](O)C3)ncnc2[nH]1 | ≥ 6.30 |
| NS(=O)(=O)OC[C@@H]1C[C@@H](Oc2cc(NCc3cccc4ccccc34)ncn2)C[C@@H]1O | ≥ 6.30 |
| NS(=O)(=O)OC[C@H]1C[C@@H](Nc2cc(NCc3ccccc3)ncn2)[C@H](O)[C@@H]1O | ≥ 6.30 |
| NS(=O)(=O)OC[C@@H]1C[C@@H](N2CCc3c(N[C@H]4CCc5ccccc54)ncnc32)C[C@@H]1O | ≥ 6.30 |
| NS(=O)(=O)OC[C@@H]1C[C@@H](Nc2ncnc3[nH]c(-c4ccccc4OCc4ccccc4)nc23)C[C@@H]1O | ≥ 6.30 |
| CO[C@H]1Cc2ccccc2[C@H]1Nc1cc(O[C@@H]2C[C@@H](COS(N)(=O)=O)[C@@H](O)C2)ncn1 | ≥ 6.30 |
| CC1(C)C[C@H](Nc2nccc(N[C@@H]3C[C@H](COS(N)(=O)=O)[C@@H](O)[C@H]3O)n2)c2ccccc21 | ≥ 6.30 |
| CN(c1ncnc2c1nc(-c1ccccc1)n2C)[C@@H]1C[C@@H](COS(N)(=O)=O)[C@@H](O)C1 | 5.00 to 6.30 |
| Cc1cccc(S(=O)(=O)c2nc3c(O[C@@H]4C[C@@H](COS(N)(=O)=O)[C@@H](O)C4)ncnc3[nH]2)c1 | ≥ 6.30 |
| NS(=O)(=O)OC[C@H]1C[C@@H](Nc2cc(C#Cc3ccccc3)ncn2)[C@H](O)[C@@H]1O | ≥ 6.30 |
| OC[C@@H]1C[C@@H](Nc2ncnc3[nH]c(-c4cccc5c4OCCO5)nc23)C[C@@H]1O | 5.00 to 6.30 |
| CC1(C)C[C@H](Nc2cc(O[C@@H]3C[C@@H](COS(N)(=O)=O)[C@@H](O)C3)ccn2)c2ccc(Cl)cc21 | 5.00 to 6.30 |
| NS(=O)(=O)OC[C@@H]1C[C@@H](Oc2ncnc3nc(-c4ccnc5cc(Cl)ccc45)[nH]c23)C[C@@H]1O | ≥ 6.30 |
| NS(=O)(=O)OC[C@@H]1C[C@@H](Oc2ncnc3c2ncn3Cc2ccccc2)C[C@@H]1O | 5.00 to 6.30 |
| NS(=O)(=O)OC[C@H]1C[C@@H](Nc2cc(N[C@H]3CCc4c(Cl)cccc43)ncn2)[C@H](O)[C@@H]1O | ≥ 6.30 |
| NS(=O)(=O)OC[C@@H]1C[C@@H](Nc2ncnc3[nH]c(-c4ccccc4Oc4ccccc4)nc23)C[C@@H]1O | ≥ 6.30 |
| NS(=O)(=O)OC[C@@H]1C[C@@H](Oc2cc(-c3ccccc3)ncn2)C[C@@H]1O | 5.00 to 6.30 |
| NS(=O)(=O)OC[C@H]1C[C@@H](Nc2cc(NCC3CCCCC3)ncn2)[C@H](O)[C@@H]1O | ≥ 6.30 |
| NS(=O)(=O)OC[C@@H]1C[C@@H](Nc2ncnc3[nH]c(-c4cccc5ccccc45)cc23)C[C@@H]1O | ≥ 6.30 |
